target: T1, P-cadherin-ECD1-3-Fc protein (human P-cadherin-Fc) (human, UniProt P22223 108-440); assay: phage scFv ELISA, coated P-cadherin-ECD1-3-Fc
T1 construct: Construct was expressed with signal peptide and pro-peptide (PACE co-transfected to process the propeptide); not shown: hinge and CH2 and CH3 domains of human IgG1
T1 sequence (P22223 108-440): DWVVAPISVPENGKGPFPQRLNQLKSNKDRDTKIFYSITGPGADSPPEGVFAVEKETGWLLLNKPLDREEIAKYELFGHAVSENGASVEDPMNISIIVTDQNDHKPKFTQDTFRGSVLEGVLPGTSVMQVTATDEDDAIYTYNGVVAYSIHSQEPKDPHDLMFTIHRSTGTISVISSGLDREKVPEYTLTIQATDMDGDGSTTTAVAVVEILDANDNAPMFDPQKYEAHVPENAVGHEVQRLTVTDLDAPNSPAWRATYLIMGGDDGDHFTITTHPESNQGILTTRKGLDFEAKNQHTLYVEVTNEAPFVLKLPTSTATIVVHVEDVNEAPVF
Give measured % of binding of Clone #153 to human P-cadherin-Fc for each item. Keep answers brief.
Give bare numbers, in %.

>  <binder>
anti-P-cadherin scFv 153 alanine-mutant H1.8-Ala (scFv, V domains shown, scFv on phage) VH: EVQLVQSGAEVKKPGASVKVSCKASGYTFTSYAISWVRQAPGQGLEWMGWISAYNGNTNYAQKLQGRVTMTTDTSTSTAYMELRSLRSDDTAVYYCATIDTANAFGIWGQGTMVTVSS VL: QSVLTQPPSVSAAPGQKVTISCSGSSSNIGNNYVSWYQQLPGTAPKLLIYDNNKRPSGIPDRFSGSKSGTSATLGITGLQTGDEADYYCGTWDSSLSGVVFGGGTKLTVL

>  <quantitative readout>
27

$$$$
>  <binder>
anti-P-cadherin scFv 153 alanine-mutant H3.1-Ala (scFv, V domains shown, scFv on phage) VH: EVQLVQSGAEVKKPGASVKVSCKASGYTFTSYGISWVRQAPGQGLEWMGWISAYNGNTNYAQKLQGRVTMTTDTSTSTAYMELRSLRSDDTAVYYCATADTANAFGIWGQGTMVTVSS VL: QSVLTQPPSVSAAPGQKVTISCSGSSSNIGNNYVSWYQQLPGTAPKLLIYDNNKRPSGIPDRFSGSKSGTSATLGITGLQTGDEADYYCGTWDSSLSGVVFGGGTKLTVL

>  <quantitative readout>
13

$$$$
>  <binder>
anti-P-cadherin scFv 153 alanine-mutant H2.14-Ala (scFv, V domains shown, scFv on phage) VH: EVQLVQSGAEVKKPGASVKVSCKASGYTFTSYGISWVRQAPGQGLEWMGWISAYNGNTNYAQALQGRVTMTTDTSTSTAYMELRSLRSDDTAVYYCATIDTANAFGIWGQGTMVTVSS VL: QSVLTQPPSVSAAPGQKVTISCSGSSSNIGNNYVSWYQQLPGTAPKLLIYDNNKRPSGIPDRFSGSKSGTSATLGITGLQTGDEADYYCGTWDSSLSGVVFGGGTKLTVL

>  <quantitative readout>
117

$$$$
>  <binder>
anti-P-cadherin scFv 153 alanine-mutant H1.4-Ala (scFv, V domains shown, scFv on phage) VH: EVQLVQSGAEVKKPGASVKVSCKASGYTATSYGISWVRQAPGQGLEWMGWISAYNGNTNYAQKLQGRVTMTTDTSTSTAYMELRSLRSDDTAVYYCATIDTANAFGIWGQGTMVTVSS VL: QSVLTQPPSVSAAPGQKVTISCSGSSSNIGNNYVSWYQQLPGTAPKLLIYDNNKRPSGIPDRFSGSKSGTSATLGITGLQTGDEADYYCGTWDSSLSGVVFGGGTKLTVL

>  <quantitative readout>
177

$$$$

Now for the binder whose % of binding of Clone #153 to human P-cadherin-Fc we want.
// lookup % of binding of Clone #153 to human P-cadherin-Fc for anti-P-cadherin scFv 153 alanine-mutant H2.8-Ala (scFv, V domains shown, scFv on phage) VH: EVQLVQSGAEVKKPGASVKVSCKASGYTFTSYGISWVRQAPGQGLEWMGWISAYNGATNYAQKLQGRVTMTTDTSTSTAYMELRSLRSDDTAVYYCATIDTANAFGIWGQGTMVTVSS VL: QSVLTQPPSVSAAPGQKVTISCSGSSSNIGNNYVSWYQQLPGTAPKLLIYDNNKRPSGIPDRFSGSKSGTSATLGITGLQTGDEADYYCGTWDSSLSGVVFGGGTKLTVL
162
